pIC50: −log10 of the molar value.
Reported pIC50 on PIK3CA (human) for assorted compounds, compiled from publications.
measuredParameter: pIC50

- CC(C)Cn1c(N2CCN(S(C)(=O)=O)CC2)nc2c(N3CCOCC3)nc(-c3cnc(N)nc3)nc21: 7.70 to 8.00
- Cc1cc2oc(N)nc2cc1-c1ccc2ncc(C(=O)N3CCOCC3)n2c1: < 5.00
- C[C@H](NC(=O)c1c(N)nn2cccnc12)c1cc2cccc(-c3ccncc3)c2c(=O)n1-c1ccccc1: 5.00 to 6.00
- Cc1cccc2cc(Cn3nc(-c4cc(O)cc(F)c4)c4c(N)ncnc43)n(-c3ccccc3O)c(=O)c12: > 5.00

* * *

Reported IC50 on PIK3CA (human) (UniProt P42336) for assorted compounds, compiled from publications.
measuredParameter: IC50

* COc1ncc(-c2ccc3ncn(CC(N)C(N)=O)c(=O)c3c2)cc1NS(=O)(=O)c1ccc(F)cc1Cl (stereo not drawn) | 0.0054 µM
* O=c1cc(Oc2cccc(NCc3cncc(F)c3)c2)c2ccccc2[nH]1 | 8.99 µM
* NC(=O)c1cccc(-c2cnc3[nH]cc(C(=O)c4cccc(NS(=O)(=O)c5cccnc5)c4)c3c2)c1 | ≤ 10 µM
* CCNc1ncc(-c2nc(N3CCOCC3)c3nc(-c4cccc(NS(=O)(=O)CCCF)c4F)ccc3n2)cn1 | 0.1 to 1 µM
* CC(C)(C#N)c1ccc(-c2n[nH]c3cnc4ccc(-c5cccc(Nc6ccncc6)c5)cc4c23)cc1 | > 0.02 µM
* O=C(c1cnc2ccc(-c3cnc(Cl)c(NS(=O)(=O)c4ccc(F)cc4)c3)cn12)N1CCOCC1 | < 0.1 µM
* C[C@@H]1COCCN1c1nc(N2CCOC[C@H]2C)c2nc(-c3cccc4c3CCN4)[nH]c2n1 | 4.91 µM
* C[C@H](Nc1ncnc2[nH]cnc12)c1cc2cccc(Cl)c2c(C(=O)N2CCC2)n1 | > 10 µM
* C[C@H](Nc1ncnc2cccnc12)c1cc2cccc(Cl)c2c(C(=O)N2CCOC[C@@H]2C)n1 | < 10 µM
* CNC(=O)N[C@H]1CC[C@H](Nc2nc(N3CCOCC3)nc(-n3c(C(F)F)nc4ccccc43)n2)CC1 | 0.21 µM
* O=c1cc(Oc2ccc(OC(F)F)cc2)c2ccccc2[nH]1 | > 10 µM
* CN1CCC(Nc2cccc(Oc3cc(=O)[nH]c4ccccc34)c2)CC1 | > 10 µM
* Nc1ncc(-c2nc(N3CCOCC3)c3ncc(-c4cncnc4)cc3n2)cn1 | < 0.05 µM
* Cc1nc2ccc(-c3ccc4c(c3)CN(c3ncnc5c3CN(C3CC3)C5)CCO4)cc2[nH]1 | ≥ 2 µM
* COc1ncc(-c2cnc3[nH]cc(C(=O)c4c(F)ccc(NS(=O)(=O)c5ccc(F)cc5F)c4F)c3c2)cn1 | ≤ 10 µM

* * *

Reported IC50 on PIK3CA (human) for assorted molecules, compiled from publications.
measuredParameter: IC50

* Nc1ncc(-c2ccc3ncc4nnn(C5CCN(CC6CCOCC6)CC5)c4c3n2)cc1C(F)(F)F | < 0.1 µM
* O=c1cc(Oc2cccc(-c3ccc(NC4CCN(Cc5ccncc5)CC4)cc3)c2)c2ccccc2[nH]1 | > 10 µM
* COc1ccc(Nc2nc(-c3cccc(O)c3)nc3c2cnn3C2CCN(Cc3ccccc3)CC2)cc1OC | > 10 µM
* CC[C@H](NC(=O)c1c(N)nn2cccnc12)c1cc2cccc(Cl)c2c(=O)n1-c1ccccc1 | 1 to 10 µM
